- Test system: NCI-H146 cells
- method.notes: Inhibition of proliferation of NCI-H146 cells (CellTiter-Glo)
- Type: cell-based
- applied.conditions: Homo sapiens, 72 h, 3 days, read-out: Inhibitory activity IC50 (nM) for the proliferation of NCI-H146 cells
# note: exactly 50 nM is not below, so it is no; use yes for IC50 strictly under it

O=C(NS(=O)(=O)c1ccc(N[C@@H](CSc2ccccc2)C[C@@H]2CCCN2)c(S(=O)(=O)C(F)(F)F)c1)c1ccc(N2CCC([C@@H](O)c3ccccc3-c3ccc(Cl)cc3)CC2)cc1 : yes
O=C(NS(=O)(=O)c1ccc(N[C@@H](CSc2ccccc2)C[C@H]2CCCN2CCCO)c(S(=O)(=O)C(F)(F)F)c1)c1ccc(N2CCC([C@@H](O)c3ccccc3-c3ccc(Cl)cc3)CC2)cc1 : no
CN(CCO)CC[C@H](CSc1ccccc1)Nc1ccc(S(=O)(=O)NC(=O)c2ccc(N3CCC([C@@H](O)c4ccccc4-c4ccc(C(F)(F)F)cc4)CC3)cc2)cc1S(=O)(=O)C(F)(F)F : yes

Hello, I'm reviewing records and need to know if IC50 of O=C(NS(=O)(=O)c1ccc(N[C@@H](CSc2ccccc2)C[C@H]2CCCN2CCO)c(S(=O)(=O)C(F)(F)F)c1)c1ccc(N2CCC([C@@H](O)c3ccccc3-c3ccc(Cl)cc3)CC2)cc1 is below 50 nM. Could you check?
yes

Hello, I'm reviewing records and need to know if IC50 of O=C(NS(=O)(=O)c1ccc(N[C@@H](CSc2ccccc2)C[C@@H]2CCCN2CCO)c(S(=O)(=O)C(F)(F)F)c1)c1ccc(N2CCC([C@@H](O)c3ccccc3-c3ccc(Cl)cc3)CC2)cc1 is below 50 nM. Could you check?
yes

Hello, I'm reviewing records and need to know if IC50 of O=C(NS(=O)(=O)c1ccc(N[C@@H](CSc2ccccc2)C[C@@H]2CCCN2CCO)c(S(=O)(=O)C(F)(F)F)c1)c1ccc(N2CCC([C@@H](O)c3ccccc3-c3ccc(C(F)(F)F)cc3)CC2)cc1 is below 50 nM. Could you check?
yes

----------
- method.notes: Pharmacokinetic evaluation in mice (iv, LC/MS/MS plasma)
- Assay type: in vivo
- applied.conditions: mouse, plasma; C57 mice, female, intravenous administration, dose 1 mg/kg (table); read-out: Area under curve AUC0-t
metric.name: AUC(0-t) (ng·h/mL)
Please state the figure in ng·h/mL; there is no need to write the unit.

CN(CCO)CC[C@H](CSc1ccccc1)Nc1ccc(S(=O)(=O)NC(=O)c2ccc(N3CCC([C@@H](O)c4ccccc4-c4ccc(Cl)cc4)CC3)cc2)cc1S(=O)(=O)C(F)(F)F [AZD4320, reference compound] : 206

Requested read-out: AUC(0-t). Entry: CN(CCO)CC[C@H](CSc1ccccc1)Nc1ccc(S(=O)(=O)NC(=O)c2ccc(N3CCC([C@@H](O)c4ccccc4-c4ccc(C(F)(F)F)cc4)CC3)cc2)cc1S(=O)(=O)C(F)(F)F
296

----------
Recorded half-life, one value per entry.
- method.notes: Pharmacokinetic evaluation in mice (iv, LC/MS/MS plasma)
- Type: in vivo
- applied.conditions: mouse, plasma; C57 mice, female, intravenous administration, dose 1 mg/kg (table); read-out: Half-life T½ (converted)
Please state the figure in h; there is no need to write the unit.

CN(CCO)CC[C@H](CSc1ccccc1)Nc1ccc(S(=O)(=O)NC(=O)c2ccc(N3CCC([C@@H](O)c4ccccc4-c4ccc(Cl)cc4)CC3)cc2)cc1S(=O)(=O)C(F)(F)F [AZD4320, reference compound] : 3.1

Next, consider the following compound.
Requested read-out: half-life. Entry: CN(CCO)CC[C@H](CSc1ccccc1)Nc1ccc(S(=O)(=O)NC(=O)c2ccc(N3CCC([C@@H](O)c4ccccc4-c4ccc(C(F)(F)F)cc4)CC3)cc2)cc1S(=O)(=O)C(F)(F)F
13

Each recorded value in this set is attributed to patent US20230250077A1.
